Readings of fold decrease in affinity against wild type for the listed binders
Target: T1, Kap104p (yeast (S. cerevisiae), UniProt P38217 1-918)
T1 construct: Kap104p, yeast homolog of Kapβ2; gene a gift from J. Aitchison, subcloned into pGEX-Tev; also called yeast Karyopherin β2 homolog; source: E. coli Rosetta(DE3)pLysS, purified (glutathione sepharose, TEV cleavage, anion exchange, gel filtration)
T1 sequence (looked up): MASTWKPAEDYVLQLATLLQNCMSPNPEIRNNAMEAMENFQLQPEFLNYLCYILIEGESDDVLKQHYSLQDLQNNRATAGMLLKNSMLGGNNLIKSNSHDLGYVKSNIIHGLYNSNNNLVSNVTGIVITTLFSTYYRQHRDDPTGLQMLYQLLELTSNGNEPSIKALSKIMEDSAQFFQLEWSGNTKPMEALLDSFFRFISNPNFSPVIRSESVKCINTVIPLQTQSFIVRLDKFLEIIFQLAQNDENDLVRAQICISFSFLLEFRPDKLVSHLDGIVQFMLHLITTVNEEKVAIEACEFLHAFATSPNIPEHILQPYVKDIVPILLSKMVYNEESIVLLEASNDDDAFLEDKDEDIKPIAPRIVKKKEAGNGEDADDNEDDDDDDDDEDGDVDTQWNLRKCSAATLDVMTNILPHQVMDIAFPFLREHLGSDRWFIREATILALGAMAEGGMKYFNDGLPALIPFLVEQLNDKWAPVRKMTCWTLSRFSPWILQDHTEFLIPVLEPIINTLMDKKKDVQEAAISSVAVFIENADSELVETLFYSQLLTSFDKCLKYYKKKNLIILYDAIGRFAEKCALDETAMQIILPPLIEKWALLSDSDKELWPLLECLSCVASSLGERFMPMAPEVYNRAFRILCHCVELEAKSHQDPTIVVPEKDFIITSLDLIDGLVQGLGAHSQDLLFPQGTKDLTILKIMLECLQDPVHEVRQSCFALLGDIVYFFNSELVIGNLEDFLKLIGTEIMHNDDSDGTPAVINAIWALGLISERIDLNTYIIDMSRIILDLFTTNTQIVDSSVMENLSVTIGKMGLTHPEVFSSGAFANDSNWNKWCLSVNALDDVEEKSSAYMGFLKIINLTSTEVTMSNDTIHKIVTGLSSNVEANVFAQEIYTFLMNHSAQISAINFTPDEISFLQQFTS
Assay: ITC; 90–350 μM MBP-NLS titrated into 9–35 μM Kap104p in the cell; 20 °C; 20 mM Tris pH 7.5, 100 mM NaCl, 2 mM β-mercaptoethanol, 10% glycerol; 35 injections of 8 μl; single-site model
Details: both partners purified
Return type: number; implicit unit fold.

Report fold decrease in affinity against wild type, nothing else, for this binder: RDRNDRDRDYNHRSGGNHRRNGRGGRGGYNRRNNGYHPFNR (domain or fragment, S. cerevisiae, UniProt Q99383 494-534, looked up, Hrp1p NLS, residues 494-534; source: E. coli BL21(DE3), purified (amylose resin, cation exchange)) [MBP–Hrp1p NLS Y532F]
4

# return recorded fold decrease in affinity against wild type for entry MBP–Nab2p NLS L239E (domain or fragment, S. cerevisiae, UniProt P32505 201-251, looked up, Nab2p NLS, residues 201-251; source: E. coli BL21(DE3), purified (amylose resin, cation exchange)) DNSQRFTQRGGGAVGKNRRGGRGGNRGGRNNNSTRFNPEAKALGMAGESNM
7

Give me measured fold decrease in affinity against wild type, please, for this binder: MBP–Nab2p NLS L239D (domain or fragment, S. cerevisiae, UniProt P32505 201-251, looked up, Nab2p NLS, residues 201-251; source: E. coli BL21(DE3), purified (amylose resin, cation exchange)) DNSQRFTQRGGGAVGKNRRGGRGGNRGGRNNNSTRFNPDAKALGMAGESNM
11

Continuing:
Give the value of fold decrease in affinity against wild type reported for the following: MBP–Nab2p NLS 216KNRR219/AAAA (domain or fragment, S. cerevisiae, UniProt P32505 201-251, looked up, Nab2p NLS, residues 201-251; source: E. coli BL21(DE3), purified (amylose resin, cation exchange)) DNSQRFTQRGGGAVGAAAAGGRGGNRGGRNNNSTRFNPLAKALGMAGESNM
3
